Taken from patent US10947188B2.

Measured AUC HT.Gd3+ by item
Test system: HT-1080
ASSAY_PROCEDURE: Modulatory profiling: Alamar Blue viability, lethal compound cotreated with death modulator (EC50, AUC)
Format: cell-based
ASSAY_SETUP: HT-1080, modulator Gd3+
Write the value as a bare number.

Examples with answers:
# MOLECULE, VALUE
records = [
    ("C=CCC1(Cl)C(=O)C(Cl)=C(n2ccnc2)C1(OC)OC (stereo not drawn)", "−0.0293"),
    ("C[C@H]1CCC[C@]2(C)C[C@H]3OC(=O)[C@H](CN4CCCC4)[C@H]3C=C12", "−0.03226"),
    ("CC1(C)CC(=O)C2=C(C1)OC1=C(C(=O)CC(C)(C)C1)C2c1ccc(O)cc1O", "−0.02573"),
    ("O=c1c(N2CCCC2)c(Cl)cnn1-c1ccccc1", "−0.02607"),
    ("COc1cc([C@@H]2c3cc4c(cc3[C@H](O)[C@H]3COC(=O)[C@H]23)OCO4)cc(OC)c1OC", 0.00916),
]

Request the reported AUC HT.Gd3+ associated with CCOC(=O)[C@@H]1[C@@H](c2ccccc2)C(=O)CCN1NC(=O)c1ccccc1
−0.04594

Request the reported AUC HT.Gd3+ associated with CCCCNc1c(Cl)cnn(-c2ccccc2)c1=O
−0.04267

Request the reported AUC HT.Gd3+ associated with OCCNCC(O)Cn1c2ccc(Br)cc2c2cc(Br)ccc21 (stereo not drawn)
−0.02982

Request the reported AUC HT.Gd3+ associated with CC(C)C1CC(CCNCc2ccc3c(c2)OCO3)(c2ccccc2)CCO1 (stereo not drawn)
0.003288

* * *

Tested on: HT-1080 cells
ASSAY_PROCEDURE: Lethality of commercially available CIL41/70 structural analogs
Type: cell-based
ASSAY_SETUP: Homo sapiens, tested once in technical triplicates
Measured EC50 by item

Request the reported EC50 associated with CCc1ccc(OCC(=O)O/N=C(\N)Cc2ccc([N+](=O)[O-])cc2)cc1
> 20 µg/mL

* * *

System: BJeLR
ASSAY_PROCEDURE: Modulatory profiling: Alamar Blue viability, lethal compound cotreated with death modulator (EC50, AUC)
Assay type: cell-based, human
ASSAY_SETUP: BJeLR cells; lethal compound cotreated with modulator NMMA; modulatory profile value (AUC)
Decide by AUC, modulator BJ.NMMA: equal to or exceeding -0.02 means MET, less means NOT MET.

Example cases with answers are listed next.
# MOLECULE, ASSAYED_SYSTEM, LABEL_CLASS
records = [
    ("CC1(C)CC(=O)C2=C(C1)OC1=C(C(=O)CC(C)(C)C1)C2c1ccc(O)cc1O", "BJeLR", "NOT MET"),
    ("COc1cccc2c1C(=O)c1c(O)c3c(c(O)c1C2=O)C[C@@](O)(C(C)=O)C[C@@H]3O[C@H]1C[C@H](N)[C@H](O)[C@H](C)O1", "BJeLR", "MET"),
    ("CC(C)C1CC(CCNCc2ccc3c(c2)OCO3)(c2ccccc2)CCO1 (centres unmarked)", "BJeLR", "MET"),
    ("C(=N\\Nc1nc2ccccc2s1)/c1ccccn1", "BJeLR", "MET"),
    ("COc1cc([C@@H]2c3cc4c(cc3[C@@H](O[C@@H]3O[C@@H]5CO[C@@H](C)O[C@H]5[C@H](O)[C@H]3O)[C@H]3COC(=O)[C@H]23)OCO4)cc(OC)c1O [Etoposide]", "BJeLR", "NOT MET"),
]

Answer whether AUC, modulator BJ.NMMA of COc1ccc(N(C(=O)CCl)C(C(=O)NCCc2ccccc2)c2cccs2)cc1 (centres unmarked) is greater than or equal to -0.02.
MET

Answer whether AUC, modulator BJ.NMMA of CCCS(=O)(=O)c1nnnn1-c1cccc(OC)c1 is greater than or equal to -0.02.
NOT MET

Answer whether AUC, modulator BJ.NMMA of O=c1c(Cl)c(Cl)cnn1-c1ccc(Cl)cc1 is greater than or equal to -0.02.
MET

* * *

Tested on: BJeLR
ASSAY_PROCEDURE: Modulatory profiling: Alamar Blue viability, lethal compound cotreated with death modulator (EC50, AUC)
Type: cell-based, human
ASSAY_SETUP: BJeLR cells; lethal compound cotreated with modulator Lmin/NAD+; modulatory profile value (AUC)
Measured AUC, modulator BJ.Lmin/NAD+ by item
Write the value as a bare number.

Request the reported AUC, modulator BJ.Lmin/NAD+ associated with COC(=O)c1[nH]c2ccc(Br)cc2c1NC(=O)CN1CCN(C2CCCCC2)CC1 [CIL71]
0.001502

Request the reported AUC, modulator BJ.Lmin/NAD+ associated with CC(C)=CCCC1=CCC(CNCCCN(C)C)C(C)C1 (stereo not shown) [CIL28]
−0.02578

Request the reported AUC, modulator BJ.Lmin/NAD+ associated with COc1cccc2c1C(=O)c1c(O)c3c(c(O)c1C2=O)C[C@@](O)(C(C)=O)C[C@@H]3O[C@H]1C[C@H](N)[C@H](O)[C@H](C)O1 [Daunorubicin]
0.1434

Request the reported AUC, modulator BJ.Lmin/NAD+ associated with C[C@@H]1C[C@@H]([C@H](O)CC2CC(=O)NC(=O)C2)C(=O)[C@@H](C)C1 [cycloheximide, Cycloheximide, reference compound]
0.1057

Request the reported AUC, modulator BJ.Lmin/NAD+ associated with C[S+]([O-])c1nc(-c2ccc(Br)cc2)cc(-c2ccccc2)c1C#N (stereo not shown) [CIL17]
−0.03209

* * *

Test system: BJeLR
ASSAY_PROCEDURE: Modulatory profiling: Alamar Blue viability, lethal compound cotreated with death modulator (EC50, AUC)
Assay type: cell-based, human
Design: unit not given beside the values
ASSAY_SETUP: BJeLR cells; lethal compound cotreated with modulator Boc D; modulatory profile value (AUC)
Decide by AUC, modulator BJ.Boc D: equal to or exceeding -0.02 means condition met, less means condition not met.

Example cases with answers are listed next.
# COMPOUND, ASSAYED_SYSTEM, LABEL_CLASS
records = [
    ("COc1ccc(Nc2ccc3c(c2)=NC2(CCCCC2)[N+]=3[O-])cc1", "BJeLR", "condition not met"),
    ("O=c1c(N2CCCC2)c(Cl)cnn1-c1ccccc1", "BJeLR", "condition not met"),
    ("CC1CC2=C(CC1CNCCCN(C)C)C(C)(C)CCC2 (centres unmarked)", "BJeLR", "condition not met"),
    ("CCCS(=O)(=O)c1nnnn1-c1cccc(OC)c1", "BJeLR", "condition not met"),
    ("COC(=O)c1ccc([C@@H]2c3[nH]c4ccccc4c3C[C@@H](C(=O)OC)N2C(=O)CCl)cc1 [RSL3, reference compound]", "BJeLR", "condition met"),
]

Answer whether AUC, modulator BJ.Boc D of CCCCS(=O)(=O)/C=C\C=C/S(=O)(=O)CCCC is greater than or equal to -0.02.
condition not met

Answer whether AUC, modulator BJ.Boc D of COc1cccc2c1C(=O)c1c(O)c3c(c(O)c1C2=O)C[C@@](O)(C(C)=O)C[C@@H]3O[C@H]1C[C@H](N)[C@H](O)[C@H](C)O1 is greater than or equal to -0.02.
condition met

Answer whether AUC, modulator BJ.Boc D of C=C(C)[C@H]1Cc2c(ccc3c2O[C@@H]2COc4cc(OC)c(OC)cc4[C@@H]2C3=O)O1 is greater than or equal to -0.02.
condition met

Answer whether AUC, modulator BJ.Boc D of Cc1[nH]c2c(ccc3ccccc32)c1C1C(CCN)C1(C)C (centres unmarked) is greater than or equal to -0.02.
condition met

Answer whether AUC, modulator BJ.Boc D of CC(C)C[C@H](NC(=O)[C@H](Cc1ccccc1)NC(=O)c1cnccn1)B(O)O is greater than or equal to -0.02.
condition met

* * *

System: BJeLR
ASSAY_PROCEDURE: Modulatory profiling: Alamar Blue viability, lethal compound cotreated with death modulator (EC50, AUC)
Format: cell-based, human
Design: unit not given beside the values
ASSAY_SETUP: BJeLR cells; lethal compound cotreated with modulator ALLN; modulatory profile value (AUC)
Measured AUC, modulator BJ.ALLN by item
Write the value as a bare number.

# COMPOUND, VALUE
measured = [
    ("O=[N+]([O-])c1ccc(O)c([N+](=O)[O-])c1", "−0.03838"),
    ("OCCNCC(O)Cn1c2ccc(Br)cc2c2cc(Br)ccc21 (stereo not drawn)", "−0.02876"),
    ("COc1cc2c(c(OC)c1OC)-c1ccc(OC)c(=O)cc1[C@@H](NC(C)=O)CC2", "−0.03356"),
    ("O=C(CCCCCN1C(=O)c2cccc3cccc(c23)C1=O)NO", "−0.07856"),
    ("CC(C(NNC(=O)c1ccc(C(F)(F)F)cc1)c1ccc(Br)cc1)[N+](=O)[O-] (stereo not drawn)", "−0.08721"),
    ("C[C@@H]1C[C@@H]([C@H](O)CC2CC(=O)NC(=O)C2)C(=O)[C@@H](C)C1 [cycloheximide, Cycloheximide, reference compound]", 0.09461),
]

Tell me reported AUC, modulator BJ.ALLN for CCCCS(=O)(=O)/C=C\C=C/S(=O)(=O)CCCC , tested with BJeLR.
−0.05864

Tell me reported AUC, modulator BJ.ALLN for C=CCC1(Cl)C(=O)C(Cl)=C(n2ccnc2)C1(OC)OC (stereo not drawn) , tested with BJeLR.
−0.0536

Tell me reported AUC, modulator BJ.ALLN for Cc1cc(C)c2c(=O)n(CC(=O)NCCCN3CCN(c4ccccc4F)CC3)sc2n1 , tested with BJeLR.
−0.008924
